Assay: Cytotoxicity against human NCI-H460 cells incubated for 72 hrs by CCK-8 assay
// reported CC50 at 72 h per item

Previously resolved entries follow.
Compound	CC50 at 72 h
CC(C)Oc1ccc(C(=O)Nc2ccc(CN3CCN(C)CC3)c(C(F)(F)F)c2)cc1[N+](=O)[O-]	19.2 µM
CN(C)C1CC(Oc2ccc(NC(=O)c3ccc(OCCCl)c([N+](=O)[O-])c3)cc2C(F)(F)F)C1 (stereo not drawn)	9.94 µM

query: Tell me the measured CC50 at 72 h of COc1ccc(C(=O)Nc2ccc(OC3CC(N(C)C)C3)cc2C(F)(F)F)cc1[N+](=O)[O-] (stereo not drawn) , please.
result: 99.5 µM
